System: velvetleaf (Abutilon theophrasti)
Experimental protocol: Test A pre-/postemergence plant response
Type: in vivo
Assay conditions: Postemergence, 125 g ai/ha; 0 to 100 scale where 0 is no effect and 100 is complete control
Observation type: Plant response rating, Velvetleaf
One number for each entry.

Sample records with Plant response rating, Velvetleaf:
- Molecule: "CCCn1c(-c2cc(C)cc(C)c2)ncc(C(=O)C2=C(O)CCCC2=O)c1=O [Compound 156]"
  Measured target: "velvetleaf (Abutilon theophrasti)"
  Observation type: "Plant response rating, Velvetleaf"
  Result number: 100
- Molecule: "Cc1ccccc1-n1c(-c2cc(F)cc(F)c2)ncc(C(=O)C2=C(O)CCCC2=O)c1=O [Compound 159]"
  Measured target: "velvetleaf (Abutilon theophrasti)"
  Observation type: "Plant response rating, Velvetleaf"
  Result number: 100
- Molecule: "CCCn1c(-c2cccs2)ncc(C(=O)C2=C(O)CCCC2=O)c1=O [Compound 77]"
  Measured target: "velvetleaf (Abutilon theophrasti)"
  Observation type: "Plant response rating, Velvetleaf"
  Result number: 100
- Molecule: "Cc1ccc(Cl)cc1-n1c(-c2cccc(Br)c2)ncc(C(=O)C2=C(O)CCCC2=O)c1=O [Compound 144]"
  Measured target: "velvetleaf (Abutilon theophrasti)"
  Observation type: "Plant response rating, Velvetleaf"
  Result number: 100
- Molecule: "CCCn1c(-c2ccc(F)cc2)ncc(C(=O)C2=C(O)CCCC2=O)c1=O [Compound 102]"
  Measured target: "velvetleaf (Abutilon theophrasti)"
  Observation type: "Plant response rating, Velvetleaf"
  Result number: 100
- Molecule: "CCCn1c(-c2ccco2)ncc(C(=O)C2=C(O)CCCC2=O)c1=O [Compound 110]"
  Measured target: "velvetleaf (Abutilon theophrasti)"
  Observation type: "Plant response rating, Velvetleaf"
  Result number: 90

For every item in the list below, what is its measured Plant response rating, Velvetleaf?
1. COc1ccc(-n2c(-c3cccc(F)c3)ncc(C(=O)C3=C(O)CCCC3=O)c2=O)cc1 [Compound 203]
2. CCCCCc1ncc(C(=O)C2=C(O)CCCC2=O)c(=O)n1-c1ccccc1 [Compound 78]
3. C=CCCn1c(-c2ccccc2)ncc(C(=O)C2=C(O)CCCC2=O)c1=O [Compound 214]
4. CCCCn1c(-c2cccc(Cl)c2)ncc(C(=O)C2=C(O)CCCC2=O)c1=O [Compound 146]
5. COCC(C)n1c(-c2ccccc2)ncc(C(=O)C2=C(O)CCCC2=O)c1=O (stereo not shown) [Compound 107]
6. Cc1cccc(-c2ncc(C(=O)C3=C(O)CCCC3=O)c(=O)n2C2CCCCC2)c1 [Compound 185]

Result:
1. 90
2. 100
3. 100
4. 100
5. 100
6. 90

// for each molecule in input: emit Plant response rating, Velvetleaf
1. Cc1ccc(-n2c(-c3cccc(F)c3)ncc(C(=O)C3=C(O)CCCC3=O)c2=O)cc1 [Compound 202]
2. CCc1ccc(-n2c(-c3ccccc3)ncc(C(=O)C3=C(O)CCCC3=O)c2=O)cc1 [Compound 219]
3. CCCc1ncc(C(=O)C2=C(O)CCCC2=O)c(=O)n1CC1CCCO1 (stereo not shown) [Compound 74]
4. COCCn1c(-c2cc(F)cc(F)c2)ncc(C(=O)C2=C(O)CCCC2=O)c1=O [Compound 119]
5. CCCCn1c(-c2cccc(Br)c2)ncc(C(=O)C2=C(O)CCCC2=O)c1=O [Compound 138]
6. COCCCn1c(-c2cccc(F)c2)ncc(C(=O)C2=C(O)C3CCC(C3)C2=O)c1=O (stereo not shown) [Compound 238]
7. Cc1cc(-n2c(-c3cccc(F)c3)ncc(C(=O)C3=C(O)CCCC3=O)c2=O)ccc1F [Compound 191]

Result:
1: 100; 2: 100; 3: 90; 4: 100; 5: 100; 6: 100; 7: 100

Lab note: each molecule below needs its Plant response rating, Velvetleaf filled in.
1. CCn1c(-c2cccc(Cl)c2)ncc(C(=O)C2=C(O)CCCC2=O)c1=O [Compound 145]
2. O=C1CCCC(O)=C1C(=O)c1cnc(-c2cccc(C(F)(F)F)c2)n(C2CCCCC2)c1=O [Compound 195]
3. CCCc1ncc(C(=O)C2=C(O)CCCC2=O)c(=O)n1-c1ccccc1C [Compound 73]

Result:
[100, 100, 100]
